Listed here: items and their measured inhibition.
Molecular target: Vascular endothelial growth factor receptor 2 (Homo sapiens) (UniProt P35968);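 further: each value is the mean percent inhibition of KDR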
Sequence (P35968 whole entry): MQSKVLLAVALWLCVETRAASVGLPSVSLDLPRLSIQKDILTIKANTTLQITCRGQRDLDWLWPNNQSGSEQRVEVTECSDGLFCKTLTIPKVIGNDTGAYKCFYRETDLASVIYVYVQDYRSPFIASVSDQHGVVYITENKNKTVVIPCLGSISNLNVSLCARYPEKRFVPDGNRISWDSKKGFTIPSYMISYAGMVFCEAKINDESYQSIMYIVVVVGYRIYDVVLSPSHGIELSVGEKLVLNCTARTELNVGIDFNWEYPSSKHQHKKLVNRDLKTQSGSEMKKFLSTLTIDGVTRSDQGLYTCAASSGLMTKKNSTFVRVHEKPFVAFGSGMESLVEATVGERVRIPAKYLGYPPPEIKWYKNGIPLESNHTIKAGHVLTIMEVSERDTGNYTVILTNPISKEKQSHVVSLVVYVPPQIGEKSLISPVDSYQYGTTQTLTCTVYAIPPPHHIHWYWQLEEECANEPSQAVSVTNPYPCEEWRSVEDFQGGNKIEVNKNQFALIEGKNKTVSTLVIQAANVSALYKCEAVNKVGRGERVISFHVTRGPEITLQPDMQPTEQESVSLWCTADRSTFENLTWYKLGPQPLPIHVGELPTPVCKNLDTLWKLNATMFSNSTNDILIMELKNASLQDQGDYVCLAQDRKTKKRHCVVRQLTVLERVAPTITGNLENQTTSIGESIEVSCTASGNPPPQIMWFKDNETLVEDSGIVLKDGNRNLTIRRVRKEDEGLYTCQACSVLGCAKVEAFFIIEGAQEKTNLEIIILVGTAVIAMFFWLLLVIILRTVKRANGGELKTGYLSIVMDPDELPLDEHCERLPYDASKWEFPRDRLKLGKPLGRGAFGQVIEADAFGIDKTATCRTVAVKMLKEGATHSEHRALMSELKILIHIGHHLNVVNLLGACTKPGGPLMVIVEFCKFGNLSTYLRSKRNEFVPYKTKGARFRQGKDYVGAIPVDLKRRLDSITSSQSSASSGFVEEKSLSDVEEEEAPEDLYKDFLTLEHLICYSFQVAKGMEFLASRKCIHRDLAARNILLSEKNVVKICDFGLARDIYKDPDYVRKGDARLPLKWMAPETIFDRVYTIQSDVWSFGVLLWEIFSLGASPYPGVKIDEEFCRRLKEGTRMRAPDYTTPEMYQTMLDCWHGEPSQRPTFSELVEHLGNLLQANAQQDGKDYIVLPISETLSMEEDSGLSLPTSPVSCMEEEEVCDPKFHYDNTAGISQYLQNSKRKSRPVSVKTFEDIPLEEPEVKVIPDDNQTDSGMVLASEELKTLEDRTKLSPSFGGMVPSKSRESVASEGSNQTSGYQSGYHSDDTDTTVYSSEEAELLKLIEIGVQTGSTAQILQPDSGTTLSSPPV
Details: at 1 µM
A complete answer gives the number and then names the unit.

Recorded results for 5 molecules are shown here.
Molecule | Result
COc1cccc(-n2ncc3c(N/N=C/c4cccc(F)c4)ncnc32)c1 | 34.1%
Cc1cccc(-c2n[nH]cc2-c2ccc3ncccc3n2)n1 | 83.2%
CNC(=O)c1cncc(/C=C/c2c(Cl)cccc2Cl)c1 | 13.1%
CS(=O)(=O)CCNCc1ccc(-c2ccc3ncnc(Nc4ccc(OCc5cccc(F)c5)c(C(F)(F)F)c4)c3c2)o1 | 3.93%
COC(=O)Nc1nc2cc(Oc3cccc(NC(=O)Nc4cc(C(F)(F)F)ccc4F)c3)ccc2[nH]1 | 63.5%

Record [O-][S+]1CCN(Cc2ccc(-c3ccc4ncnc(Nc5ccc(OCc6ccccc6)c(F)c5)c4c3)o2)CC1 , field inhibition: 6.19%

Record CS(=O)(=O)CCN(CC#N)Cc1ccc(-c2ccc3ncnc(Nc4ccc(OCc5cccc(F)c5)c(Cl)c4)c3c2)o1 , field inhibition: 7.7%

Record CN1CCC(C(=O)Nc2n[nH]c3nnc(-c4ccccc4)cc23)CC1 , field inhibition: 10.6%

Record CCn1c(-c2nonc2N)nc2ccncc21 , field inhibition: 2.46%

Record CC1=C(C(=O)Nc2ccc3[nH]ncc3c2)C(c2ccc3ccccc3c2)CC(=O)N1 (stereo not given) , field inhibition: 12.5%
